B1: CPEB3 Ribozyme (parent)
chain: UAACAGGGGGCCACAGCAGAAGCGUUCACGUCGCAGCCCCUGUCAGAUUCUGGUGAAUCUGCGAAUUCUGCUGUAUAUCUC

- Variants of: B1
- assay overview: self-cleavage, relative activity (ratio to wild type); higher = more cleavage; in vitro, sequencing
Overview of reported self-cleavage across a group of variants:
The answer should be a number; do not append a unit.

Worked cases, answers included:
{"columns": ["variant annotation", "value reported"],
 "data": [
  ["A3U G10U", 0.19],
  ["A21G A57U", 0.38],
  ["G53A A56U", 0.79],
  ["A57U G70U", 0.19]
]}

Task: Name the reported self-cleavage value associated with the variant A21G U48G
Result: 0.34

Task: Name the reported self-cleavage value associated with the variant A15G A18G
Result: 0.5

Task: Name the reported self-cleavage value associated with the variant A13U A56U
Result: 0.93

Task: Name the reported self-cleavage value associated with the variant U25C G33A
Result: 0.25

Task: Name the reported self-cleavage value associated with the variant G36A U49C
Result: 0.21
